This section presents compounds with their documented inhibition at 25 µM values.
Target: influenza A virus (IAV) PA-Nter fragment (amino acids 1-209) (Influenza A virus, UniProt P31343)
Construct: PA-Nter fragment (amino acids 1-209); made in house
Assay: FRET endonuclease activity assay
Type: biochemical
Settings: @ 25 μM; read-out: FRET % reduction of v0
Give your result in % as a bare value.

Example compounds with recorded inhibition at 25 µM:
O=C(O)c1c[nH]c2cc(C3CCCC3)nn2c1=O    41
O=C(O)c1cn(CCc2cccc(C(F)(F)F)c2)c2cc(C3CC3)nn2c1=O [drawing 225]    32
CC(C)c1cc2n(CCCc3ccccc3)cc(C(=O)O)c(=O)n2n1 [drawing 222]    22
Nc1cc2n(S(=O)(=O)Cc3ccccc3)cc(C(=O)O)c(=O)n2n1    50
Nc1cc2n(C(=O)C3(c4ccccc4)CCCC3)cc(C(=O)O)c(=O)n2n1 [drawing 220]    20

Task item: Any idea what its inhibition at 25 µM is? The compound is O=C(O)c1cn(CCc2ccccc2)c2cc(C3CCCC3)nn2c1=O [drawing 219]
Reply: 42

Task item: Any idea what its inhibition at 25 µM is? The compound is `CS(=O)(=O)n1cc(C(=O)O)c(=O)n2nc(N)cc12`
Reply: 31
